Sequence of the target: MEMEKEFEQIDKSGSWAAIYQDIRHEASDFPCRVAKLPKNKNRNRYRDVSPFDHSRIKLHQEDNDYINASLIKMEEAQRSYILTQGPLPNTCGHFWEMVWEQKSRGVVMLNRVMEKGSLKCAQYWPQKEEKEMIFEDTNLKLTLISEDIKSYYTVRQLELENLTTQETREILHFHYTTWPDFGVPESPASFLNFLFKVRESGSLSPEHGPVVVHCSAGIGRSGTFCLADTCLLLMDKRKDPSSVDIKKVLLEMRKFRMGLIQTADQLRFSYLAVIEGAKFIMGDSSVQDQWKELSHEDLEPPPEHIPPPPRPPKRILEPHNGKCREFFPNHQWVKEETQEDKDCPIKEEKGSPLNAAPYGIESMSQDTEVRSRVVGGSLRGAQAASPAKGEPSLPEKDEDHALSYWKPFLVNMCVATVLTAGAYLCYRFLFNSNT
Readout: IC50 (µM)

- Compound: "CCCC[C@@H](CCCCCCCCCC(=O)OC)O[C@@H]1O[C@H](C)[C@H](O)[C@H](O)[C@H]1O[C@@H]1O[C@H](CO)[C@@H](O)[C@H](O[C@@H]2O[C@H](CO)[C@@H](O)[C@H](O)[C@H]2O)[C@H]1O[C@@H]1O[C@@H](C)[C@H](OC(=O)[C@H](C)[C@@H](C)OC(=O)[C@H](C)[C@@H](C)O)[C@@H](O)[C@H]1O [Compound 5, Cusponin V]"
  Unit Abbreviation: "µM"
  Qualifier Symbol: "="
  Endpoint Value: 62.3
- Compound: "CCCC[C@@H](CCCCCCCCCC(=O)OC)O[C@@H]1O[C@H](C)[C@H](O)[C@H](O)[C@H]1O[C@@H]1O[C@H](CO)[C@@H](O)[C@H](O[C@@H]2O[C@H](CO)[C@@H](O)[C@H](O)[C@H]2O)[C@H]1O[C@@H]1O[C@@H](C)[C@H](OC(=O)[C@H](C)[C@@H](C)O)[C@@H](O)[C@H]1O [Compound 6, Cusponin VI]"
  Unit Abbreviation: "µM"
  Qualifier Symbol: ">"
  Endpoint Value: 100
- Compound: "CCCC[C@@H](CCCCCCCCCC(=O)OC)O[C@@H]1O[C@H](CO)[C@@H](O)[C@H](O)[C@H]1O[C@@H]1O[C@@H](C)[C@H](O[C@@H]2O[C@@H](C)[C@H](O[C@@H]3O[C@@H](C)[C@H](O)[C@@H](O)[C@H]3O)[C@@H](O[C@@H]3O[C@H](CO)[C@@H](O)[C@H](O)[C@H]3O)[C@H]2O)[C@@H](O)[C@H]1O [Compound 3, Cusponin III]"
  Unit Abbreviation: "µM"
  Qualifier Symbol: "="
  Endpoint Value: 14.2
